method summary: Cytotoxicity against human MT4 cells expressing CD4 and CXCR4 assessed as cell viability
Type: cell-based
Each entry below carries its recorded CC50.

COCc1cccc(CN(CCCCN)C2CCCc3cccnc32)n1 (racemic) : > 154 µM
Cc1ccc(C(C)N(CCCCN)Cc2nc3ccccc3[nH]2)nc1 (stereo not given) : > 146 µM
Cc1cccc(CN(CCCCN)C(C)c2ccccn2)n1 (racemic) : > 145 µM
CC(c1ccccn1)N(CCCCN)Cc1nc2ccccc2[nH]1 (stereo not given) : > 161 µM

Now, please, on to the next compound.
Would you kindly share the measured CC50 for Cc1cccnc1C(C)N(CCCCN)Cc1nc2ccccc2[nH]1 (stereo not given) ?
> 146 µM

====

Each entry below carries its recorded CC50.
method summary: Cytotoxicity against human MT4 cells expressing CD4 and CXCR4 assessed as cell viability
Assay type: cell-based

Examples from the recorded data:
NCCCCN(Cc1nc2ccccc2[nH]1)C(c1ccccc1)c1ccccn1 (stereo not drawn) : > 148 µM
NCCCCN(Cc1nc2ccccc2[nH]1)Cc1ncccc1O : > 149 µM
CC(c1cccc(N)n1)N(CCCCN)Cc1nc2ccccc2[nH]1 (stereo not drawn) : > 149 µM

Would you kindly share the measured CC50 for CCC(c1ccccn1)N(CCCCN)Cc1nc2ccccc2[nH]1 (stereo not drawn) ?
> 162 µM

Would you kindly share the measured CC50 for CC(C)C(c1ccccn1)N(CCCCN)Cc1nc2ccccc2[nH]1 (stereo not drawn) ?
> 162 µM

Would you kindly share the measured CC50 for Cc1cccc(C(C)N(CCCCN)Cc2nc3ccccc3[nH]2)n1 (stereo not drawn) ?
> 167 µM

Would you kindly share the measured CC50 for Cc1ccnc(C(C)N(CCCCN)Cc2nc3ccccc3[nH]2)c1 (stereo not drawn) ?
> 142 µM

Would you kindly share the measured CC50 for NCCCCN(Cc1ncccc1CO)C1CCCc2cccnc21 (racemic) ?
155 µM

Would you kindly share the measured CC50 for NCCCCN(Cc1ccccn1)C1CCCc2cccnc21 (racemic) ?
165 µM

Would you kindly share the measured CC50 for CC(c1ccccn1)N(CCCCN)Cc1ncccc1C(C)(C)C (racemic) ?
158 µM

====

Tested on: Human immunodeficiency virus 1
method summary: Antiviral activity against X4 tropic HIV1 NL4.3 infected in CD4 and CXCR4 expressing human MT4 cells assessed as inhibition of viral cytopathicity
Format: functional, organism-based
experimental setup: Human immunodeficiency virus 1, NL4.3, MT4
Each entry below carries its recorded pIC50.
Note: pIC50 values are expressed as the negative base-10 logarithm of concentration in M.

Examples from the recorded data:
NCCCCN(Cc1nc2ccccc2[nH]1)[C@H]1CCCc2cccnc21 [MAVORIXAFOR] : 8.32
Cc1ccc(CN(CCCCN)C(C)c2ccccn2)nc1 (racemic) : 7.32

Now, please, on to the next molecule.
What pIC50 appears in the records for this molecule with Human immunodeficiency virus 1? Cc1cccnc1C(C)N(CCCCN)Cc1nc2ccccc2[nH]1 (stereo not drawn)
6.30

====

method summary: Cytotoxicity against human MT4 cells expressing CD4 and CXCR4 assessed as cell viability
Assay type: cell-based
quantity name: CC50

CC(C)(c1ccccn1)N(CCCCN)Cc1nc2ccccc2[nH]1 : > 159 µM
CC(c1ccccn1)N(CCCCN)Cc1ncccc1C(F)(F)F (racemic) : > 155 µM

Now, please, on to the next molecule.
Would you kindly share the measured CC50 for Cc1cnc(CN(CCCCN)C(C)c2ccccn2)c(C)c1 (racemic) ?
163 µM
